Let's look at some sequences and their measured binding signal.
- test target: GST-Co-NF-kB (Capsaspora owczarzaki, UniProt F1ARL5 200-546)
- Sequence: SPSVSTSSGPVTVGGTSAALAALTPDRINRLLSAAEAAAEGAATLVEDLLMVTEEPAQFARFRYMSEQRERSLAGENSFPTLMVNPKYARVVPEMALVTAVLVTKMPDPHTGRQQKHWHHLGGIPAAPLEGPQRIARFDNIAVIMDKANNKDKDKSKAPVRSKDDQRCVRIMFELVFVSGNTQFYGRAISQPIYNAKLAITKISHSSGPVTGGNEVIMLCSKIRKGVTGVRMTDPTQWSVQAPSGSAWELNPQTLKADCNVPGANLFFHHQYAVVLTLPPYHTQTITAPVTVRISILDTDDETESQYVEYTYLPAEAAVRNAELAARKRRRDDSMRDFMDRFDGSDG
- assay protocol: protein-binding microarray (PBM); PBM: ~300 nM protein, 6 mM HEPES pH 7.8, 80 mM KCl, 0.5 mM EDTA, 0.5 mM EGTA, 6% glycerol, 35 ng/ul poly-dIdC, 1% milk, 1 h, room temperature; high values mean tight binding
- recorded conditions: dsDNA, one strand shown
The answer is to be given in z-score; state only the numeric part.

# count of solved cases: 2
* CCGATTAACATCACGGGACCCCCTGATGTTAATCGGGTCTTGATTCGCTTGACGCTGCTG | 1.75
* CCGATTAACATCACGGGGGATTCTGATGTTAATCGGGTCTTGATTCGCTTGACGCTGCTG | 7.06

Request: Need binding signal, item `CCGATTAACATCATAATCCCCCATGATGTTAATCGGGTCTTGATTCGCTTGACGCTGCTG`
Result: 6.17

Request: Entry under review: `CCGATTAACATCAATAAAATCCCTGATGTTAATCGGGTCTTGATTCGCTTGACGCTGCTG` . Reported binding signal?
Result: 2.13

Request: Quick one: binding signal for `CCGATTAACATCAGGGAATATTATGATGTTAATCGGGTCTTGATTCGCTTGACGCTGCTG` ?
Result: 3.81

Request: For the sequence shown here, `CCGATTAACATCACAAATGGGAATGATGTTAATCGGGTCTTGATTCGCTTGACGCTGCTG` , give the reported binding signal.
Result: 1.92

----------
- test target: GST-Ap-NF-kB RHD (Exaiptasia pallida (Aiptasia), UniProt A0A913YAJ5 2-422)
- Sequence: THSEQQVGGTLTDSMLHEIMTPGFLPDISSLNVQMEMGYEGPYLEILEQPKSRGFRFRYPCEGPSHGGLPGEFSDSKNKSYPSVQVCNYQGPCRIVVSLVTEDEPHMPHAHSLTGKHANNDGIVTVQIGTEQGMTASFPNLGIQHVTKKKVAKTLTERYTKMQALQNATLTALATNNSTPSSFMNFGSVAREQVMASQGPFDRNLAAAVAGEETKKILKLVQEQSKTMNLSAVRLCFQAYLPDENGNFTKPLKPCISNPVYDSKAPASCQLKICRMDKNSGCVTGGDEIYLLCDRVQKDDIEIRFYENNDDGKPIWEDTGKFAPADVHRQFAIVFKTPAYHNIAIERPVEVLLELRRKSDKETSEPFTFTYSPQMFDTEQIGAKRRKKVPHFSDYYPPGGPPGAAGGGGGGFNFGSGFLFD
- assay protocol: protein-binding microarray (PBM); PBM: ~300 nM protein, 6 mM HEPES pH 7.8, 80 mM KCl, 0.5 mM EDTA, 0.5 mM EGTA, 6% glycerol, 35 ng/ul poly-dIdC, 1% milk, 1 h, room temperature; Ap Aiptasia and Nv Nematostella (sea anemones) / Co Capsaspora / Aq Amphimedon (sponge) / Dm Drosophila / Hu human; RHD is the Rel homology domain; high values mean tight binding
- recorded conditions: dsDNA, one strand shown
measured parameter: binding signal (z-score)
Give the quantity in z-score, number only.

• CCGATTAACATCACGGAGTCCCCTGATGTTAATCGGGTCTTGATTCGCTTGACGCTGCTG = 6.33
• CCGATTAACATCAACATGGGAATTGATGTTAATCGGGTCTTGATTCGCTTGACGCTGCTG = 1.01

Request: Can you look up the measured binding signal of `CCGATTAACATCAGGAAGGTCCCTGATGTTAATCGGGTCTTGATTCGCTTGACGCTGCTG` for me?
Result: 3.51

Request: Can you share its binding signal? I mean this sequence: `CCGATTAACATCAAGGGGGATATTGATGTTAATCGGGTCTTGATTCGCTTGACGCTGCTG`
Result: 5.89

Request: Could you tell me which binding signal is on file for `CCGATTAACATCAACCCCCCCCTTGATGTTAATCGGGTCTTGATTCGCTTGACGCTGCTG` ?
Result: 4.76
